Entries and their pKi values follow.
- target_or_test_system: T1, human glucagon receptor (human, UniProt P47871 26-477)
- T1 construct: whole, on cells; also called hGCGR; hGcgR
- T1 sequence (P47871 26-477): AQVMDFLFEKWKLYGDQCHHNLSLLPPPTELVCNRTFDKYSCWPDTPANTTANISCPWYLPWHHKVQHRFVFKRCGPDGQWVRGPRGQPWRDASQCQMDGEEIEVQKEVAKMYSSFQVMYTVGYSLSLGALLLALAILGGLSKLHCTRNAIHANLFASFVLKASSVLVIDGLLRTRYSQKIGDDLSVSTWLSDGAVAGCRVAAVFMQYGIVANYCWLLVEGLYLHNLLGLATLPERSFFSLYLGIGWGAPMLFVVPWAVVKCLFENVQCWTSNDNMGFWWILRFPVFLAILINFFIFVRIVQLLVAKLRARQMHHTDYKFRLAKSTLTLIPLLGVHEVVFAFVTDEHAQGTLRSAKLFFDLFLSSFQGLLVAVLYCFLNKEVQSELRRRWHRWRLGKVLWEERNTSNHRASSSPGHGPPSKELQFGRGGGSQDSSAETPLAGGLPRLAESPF
- assay_notes: SPA competition vs [125I]-Gcg, hGcgR membranes
- Protocol: The binding buffer contains 25 mM 4-(2-hydroxyethyl)-1-piperazineethanesulfonic acid (HEPES), pH 7.4, 2.5 mM CaCl₂, 1 mM MgCh, 0.1% (w/v) bacitracin (Research Products), 0.003% (w/v) Polyoxyethylenesorbitan monolaurate (TWEEN®-20), and Roche Complete™ Protease Inhibitors without EDTA. […] Plates are sealed and mixed on a plate shaker (setting 6) for 1 minute and read with a PerkinElmer Trilux MicroBeta® scintillation counter after 12 hours of incubation/settling time at room temperature. […]
Would you please state pKi, meaning minus log10 of the concentration in mol/L, as a bare number?

binder	pKi
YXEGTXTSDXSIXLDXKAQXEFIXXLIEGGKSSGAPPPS (Aib2, αMeF(2F)6, 4Pal10, αMeL13, Orn16, K17(Z1), Aib20, D-Glu24, αMeY25, K31(Z1), C-term NH2; Z1=AEEA2-(10-(4-carboxyphenoxy)decanoyl))	6.37
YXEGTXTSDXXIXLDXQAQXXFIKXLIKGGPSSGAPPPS (Aib2, αMeF(2F)6, 4Pal10, Aib11, αMeL13, Orn16, Aib20, Orn21, K24(Z1), αMeY25, K28(Z1), C-term NH2; Z1=AEEA2-(γ-Glu)-(10-(4-carboxyphenoxy)decanoyl))	6.88

Query binder follows.
Tell me its pKi given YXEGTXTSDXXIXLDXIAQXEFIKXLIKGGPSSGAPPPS (Aib2, αMeF(2F)6, 4Pal10, Aib11, αMeL13, Orn16, Aib20, K24(Z1), αMeY25, K28(Z1), C-term NH2; Z1=AEEA2-(γ-Glu)-(10-(4-carboxyphenoxy)decanoyl)) as the entry. 7.35
